Cited source for all entries: paper PMC4077236

Molecular target: human SERT (Homo sapiens, UniProt P31645)
Sequence (P31645 whole entry): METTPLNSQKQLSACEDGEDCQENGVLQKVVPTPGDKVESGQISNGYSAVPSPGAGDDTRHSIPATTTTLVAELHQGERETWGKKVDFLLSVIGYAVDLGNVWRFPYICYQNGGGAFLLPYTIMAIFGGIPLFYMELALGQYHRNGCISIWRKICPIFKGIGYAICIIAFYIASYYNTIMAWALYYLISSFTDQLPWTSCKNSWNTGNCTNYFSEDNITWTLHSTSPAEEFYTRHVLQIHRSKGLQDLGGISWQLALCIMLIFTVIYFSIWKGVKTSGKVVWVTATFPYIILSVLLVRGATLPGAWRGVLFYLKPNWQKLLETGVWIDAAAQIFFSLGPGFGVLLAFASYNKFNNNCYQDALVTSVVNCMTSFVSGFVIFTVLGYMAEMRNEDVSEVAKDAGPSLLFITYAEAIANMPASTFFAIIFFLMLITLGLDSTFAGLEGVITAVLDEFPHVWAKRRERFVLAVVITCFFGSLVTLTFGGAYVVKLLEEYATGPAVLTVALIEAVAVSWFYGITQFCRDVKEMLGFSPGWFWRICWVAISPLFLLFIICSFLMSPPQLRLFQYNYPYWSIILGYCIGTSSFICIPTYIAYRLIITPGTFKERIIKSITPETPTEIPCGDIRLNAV
Assay: cell-based
Settings: IC50 uptake inhibition SERT
measurement_label: IC50 (µM)
Dear colleague, please return just the value in µM, with no unit written.

q: Field: IC50 (human SERT (Homo sapiens, UniProt P31645)). Entry: NC1=NCC(c2ccccc2)O1 (stereo not shown)
a: 18.4
